assay: ATG_VDRE_CIS: Attagene CIS-FACTORIAL HepG2 Assay for human Vitamin D Receptor Element (VDRE) (AID 2282968); details: HepG2 VDRE cis-reporter transcription, actives raise or lower the signal
The source made the active and inactive calls. Rule for the calls: active = hit-call score of the fitted dose curve at least 0.9, where 1 is the maximum; inactive = score below 0.9.
Outcome codes: TRUE = active, FALSE = inactive

{"COMPOUND": "COP(=O)(OC)OC(Br)C(Cl)(Cl)Br (configuration not stated)", "CLASS_ASSIGNMENT": "FALSE"}
{"COMPOUND": "CON=C(C(=O)OC)c1ccccc1CON=C(C)c1cccc(C(F)(F)F)c1", "CLASS_ASSIGNMENT": "TRUE"}
{"COMPOUND": "CSc1nc(NC(C)C)nc(NC(C)C)n1", "CLASS_ASSIGNMENT": "TRUE"}
{"COMPOUND": "CNC(=O)ON=C(C)SC", "CLASS_ASSIGNMENT": "FALSE"}
{"COMPOUND": "CN1COCN(Cc2cnc(Cl)s2)C1=N[N+](=O)[O-]", "CLASS_ASSIGNMENT": "FALSE"}
{"COMPOUND": "COc1cc(OC)nc(Sc2cccc(Cl)c2C(=O)O)n1", "CLASS_ASSIGNMENT": "FALSE"}
{"COMPOUND": "CCCSP(=O)(OCC)Oc1ccc(Br)cc1Cl (configuration not stated)", "CLASS_ASSIGNMENT": "TRUE"}
{"COMPOUND": "CNC(=O)ON=C(SC)C(=O)N(C)C", "CLASS_ASSIGNMENT": "FALSE"}
{"COMPOUND": "CNc1cnn(-c2cccc(C(F)(F)F)c2)c(=O)c1Cl", "CLASS_ASSIGNMENT": "TRUE"}
{"COMPOUND": "CCOP(=O)(SC(C)CC)N1CCSC1=O (configuration not stated)", "CLASS_ASSIGNMENT": "FALSE"}
{"COMPOUND": "CCc1cnc(C2=NC(C)(C(C)C)C(=O)N2)c(C(=O)O)c1 (configuration not stated)", "CLASS_ASSIGNMENT": "FALSE"}
{"COMPOUND": "CCOC(=O)COc1cc(-c2nn(C)c(OC(F)F)c2Cl)c(F)cc1Cl", "CLASS_ASSIGNMENT": "FALSE"}
{"COMPOUND": "FC(F)C(F)(F)OCC(Cn1cncn1)c1ccc(Cl)cc1Cl (configuration not stated)", "CLASS_ASSIGNMENT": "TRUE"}
{"COMPOUND": "C#CC(C)(C)NC(=O)c1cc(Cl)cc(Cl)c1", "CLASS_ASSIGNMENT": "TRUE"}
{"COMPOUND": "CCOP(=S)(Oc1cnc(C(C)(C)C)nc1)OC(C)C (configuration not stated)", "CLASS_ASSIGNMENT": "TRUE"}
{"COMPOUND": "CNC(=O)Oc1cccc2c1OC(C)(C)O2", "CLASS_ASSIGNMENT": "TRUE"}
{"COMPOUND": "CCCOc1nn(C(=O)NS(=O)(=O)c2ccccc2C(=O)OC)c(=O)n1C", "CLASS_ASSIGNMENT": "FALSE"}
{"COMPOUND": "CC(COc1ccc(Oc2ccccc2)cc1)Oc1ccccn1 (configuration not stated)", "CLASS_ASSIGNMENT": "TRUE"}
{"COMPOUND": "CC(Oc1cccc(Cl)c1)C(=O)O (configuration not stated)", "CLASS_ASSIGNMENT": "FALSE"}
{"COMPOUND": "CCOP(=O)(NC(C)C)Oc1ccc(SC)c(C)c1 (configuration not stated)", "CLASS_ASSIGNMENT": "TRUE"}
{"COMPOUND": "COP(=O)(OC)C(O)C(Cl)(Cl)Cl (configuration not stated)", "CLASS_ASSIGNMENT": "TRUE"}
{"COMPOUND": "CC(C1CC1)C(O)(Cn1cncn1)c1ccc(Cl)cc1 (configuration not stated)", "CLASS_ASSIGNMENT": "FALSE"}
{"COMPOUND": "CCC(=NOC/C=C/Cl)C1=C(O)CC(C2CCOCC2)CC1=O (configuration not stated)", "CLASS_ASSIGNMENT": "FALSE"}
{"COMPOUND": "CCC(=O)Nc1ccc(Cl)c(Cl)c1", "CLASS_ASSIGNMENT": "FALSE"}
{"COMPOUND": "C#CCC1=C(C)C(OC(=O)C2C(C=C(C)C)C2(C)C)CC1=O (configuration not stated)", "CLASS_ASSIGNMENT": "TRUE"}
{"COMPOUND": "CCCCSP(=O)(SCCCC)SCCCC", "CLASS_ASSIGNMENT": "TRUE"}
{"COMPOUND": "CSc1nnc(C(C)(C)C)c(=O)n1N", "CLASS_ASSIGNMENT": "FALSE"}

====

experiment: IUF_NPC2-5_cell_number_120hr: Cell Number Assessment at 120 hours in the Leibniz Research Institute for Environmental Medicine (IUF) Neural Progenitor Cell Migration and Differentiation Assay (NPC2-5) (AID 2284308);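 note: count of Hoechst-stained nuclei in migration zone around plated human neural progenitor spheres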
Active and inactive are the calls of the source. Rule for the calls: active = hit-call score of the fitted dose curve at least 0.9, where 1 is the maximum; inactive = score below 0.9.

{"COMPOUND": "CCOP(=S)(OCC)Oc1cc(C)nc(C(C)C)n1", "outcome": "inactive"}
{"COMPOUND": "CCOC(=O)CC(SP(=O)(OC)OC)C(=O)OCC (stereo not drawn)", "outcome": "inactive"}
{"COMPOUND": "CN1COCN(Cc2cnc(Cl)s2)C1=N[N+](=O)[O-]", "outcome": "inactive"}

====

target: Peroxisome proliferator-activated receptor gamma (Homo sapiens) (UniProt P37231); test: NVS_NR_hPPARg: NovaScreen (NVS) Nuclear Receptor Binding Assay for human Peroxisome Proliferator-activated Receptor gamma (PPARg) (AID 2283370)
Sequence (P37231 whole entry, looked up): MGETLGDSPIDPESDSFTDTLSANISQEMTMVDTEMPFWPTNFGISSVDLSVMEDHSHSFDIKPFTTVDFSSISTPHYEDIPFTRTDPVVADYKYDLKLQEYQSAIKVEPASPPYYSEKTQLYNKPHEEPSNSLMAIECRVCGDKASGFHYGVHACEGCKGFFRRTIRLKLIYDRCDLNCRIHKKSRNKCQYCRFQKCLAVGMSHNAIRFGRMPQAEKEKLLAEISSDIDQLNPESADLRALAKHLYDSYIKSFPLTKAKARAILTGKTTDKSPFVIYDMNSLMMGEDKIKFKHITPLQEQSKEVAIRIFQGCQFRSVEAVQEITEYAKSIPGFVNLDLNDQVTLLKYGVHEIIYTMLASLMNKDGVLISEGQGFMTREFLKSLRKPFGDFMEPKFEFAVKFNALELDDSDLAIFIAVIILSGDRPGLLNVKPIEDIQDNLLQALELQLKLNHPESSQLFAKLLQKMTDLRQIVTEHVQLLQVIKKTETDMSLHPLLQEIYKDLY
Results filed as inconclusive are left out. Activity calls are given as the source filed them. Rule for the calls: active = hit-call score of the fitted dose curve at least 0.9, where 1 is the maximum; inconclusive = response in the unintended direction; inactive = score below 0.9.
Outcome codes: 1 (yes) (active), 0 (no) (inactive)

{"COMPOUND": "CNc1cnn(-c2cccc(C(F)(F)F)c2)c(=O)c1Cl", "CLASS_ASSIGNMENT": "0 (no)"}
{"COMPOUND": "CC(=NC#N)N(C)Cc1ccc(Cl)nc1", "CLASS_ASSIGNMENT": "0 (no)"}
{"COMPOUND": "CCC(=NOC/C=C/Cl)C1=C(O)CC(C2CCOCC2)CC1=O (configuration not stated)", "CLASS_ASSIGNMENT": "0 (no)"}
{"COMPOUND": "CCOP(=S)(OCC)Oc1ccc([N+](=O)[O-])cc1", "CLASS_ASSIGNMENT": "0 (no)"}
{"COMPOUND": "CCCSP(=O)(OCC)SCCC", "CLASS_ASSIGNMENT": "0 (no)"}
{"COMPOUND": "CCC(CC)Nc1c([N+](=O)[O-])cc(C)c(C)c1[N+](=O)[O-]", "CLASS_ASSIGNMENT": "0 (no)"}
{"COMPOUND": "Nc1c(Cl)cc([N+](=O)[O-])cc1Cl", "CLASS_ASSIGNMENT": "0 (no)"}
{"COMPOUND": "CCCCOC(=O)c1ccccc1C(=O)O", "CLASS_ASSIGNMENT": "0 (no)"}
{"COMPOUND": "CCCCN(CC)c1c([N+](=O)[O-])cc(C(F)(F)F)cc1[N+](=O)[O-]", "CLASS_ASSIGNMENT": "0 (no)"}
{"COMPOUND": "CCCOCC(=Nc1ccc(Cl)cc1C(F)(F)F)n1ccnc1", "CLASS_ASSIGNMENT": "1 (yes)"}
{"COMPOUND": "CCOP(=O)(OCC)Oc1cc(C)nc(C(C)C)n1", "CLASS_ASSIGNMENT": "0 (no)"}
{"COMPOUND": "CC(COc1ccc(Oc2ccccc2)cc1)Oc1ccccn1 (configuration not stated)", "CLASS_ASSIGNMENT": "0 (no)"}

====

read-out: Cyclin D1 (CCND1), CCND1 (gene 595); assay: LTEA_HepaRG_CCND1: Life Technologies and Expression Analysis (LTEA) Assay for Cyclin D1 (CCND1) using HepaRG (AID 2283451); conditions: mRNA level, 48 h; actives raise or lower the signal;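 for AC50: differentiated human HepaRG liver cells in serum-free induction medium; TaqMan qRT-PCR transcript level normalised to ACTB GAPDH and POLR2A housekeeping genes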
The source made the active and inactive calls. Rule for the calls: active = hit-call score of the fitted dose curve at least 0.9, where 1 is the maximum; inactive = score below 0.9.

{"COMPOUND": "CCC(CC)Nc1c([N+](=O)[O-])cc(C)c(C)c1[N+](=O)[O-]", "AC50": "inactive"}
{"COMPOUND": "CCCCN(CC)c1c([N+](=O)[O-])cc(C(F)(F)F)cc1[N+](=O)[O-]", "AC50": "inactive"}
{"COMPOUND": "COc1cc(OC)nc(Sc2cccc(Cl)c2C(=O)O)n1", "AC50": "inactive"}
{"COMPOUND": "Nc1c(Cl)cc([N+](=O)[O-])cc1Cl", "AC50": "50 µM (active)"}
{"COMPOUND": "CCOC(=O)CC(SP(=O)(OC)OC)C(=O)OCC (configuration not stated)", "AC50": "inactive"}
{"COMPOUND": "CNc1cnn(-c2cccc(C(F)(F)F)c2)c(=O)c1Cl", "AC50": "inactive"}
{"COMPOUND": "CNC(=O)ON=C(C)SC", "AC50": "inactive"}
